- measured on: Torsin-1A (Homo sapiens) (UniProt O14656)
- Sequence (O14656 whole entry, looked up): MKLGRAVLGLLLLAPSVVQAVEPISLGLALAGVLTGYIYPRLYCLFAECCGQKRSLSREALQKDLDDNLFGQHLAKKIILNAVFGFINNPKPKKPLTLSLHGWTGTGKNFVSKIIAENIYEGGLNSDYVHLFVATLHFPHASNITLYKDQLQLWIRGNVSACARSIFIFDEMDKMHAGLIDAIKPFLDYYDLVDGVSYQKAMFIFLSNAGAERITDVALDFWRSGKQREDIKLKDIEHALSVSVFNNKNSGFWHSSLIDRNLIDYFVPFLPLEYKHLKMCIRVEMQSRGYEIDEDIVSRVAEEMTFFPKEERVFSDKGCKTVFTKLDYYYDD
- protocol: small-molecule binders of mutant TOR1A in lysate, primary screen, cell lysate, small-molecule microarray, COS7 lysate, 635/667 nm fluorescence (AID 1150);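 further: score pools 667 nm emission and signal to noise measuring lysate protein binding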
- assay setup: COS7 hTOR1A mutant lysate, 635 nm fluorescence, higher = more signal

{"columns": ["compound", "composite z-score"],
 "data": [
  ["O=c1cccc(C=Cc2ccccc2)o1", -0.711],
  ["C=CCC(OC(C)=O)[C@@H]1[C@@H](N(Cc2cccc3ccccc23)C(=O)c2cccc3ccccc23)c2cc(OCCCO)ccc2N1C(=O)c1ccc2ccccc2n1 (stereo partly drawn)", -0.297],
  ["COC(=O)c1ccc(OC)c(/C=C\\CC(OC(C)=O)c2ccccc2)c1 (stereo not drawn)", -0.165],
  ["O=C/C=C/c1ccc2c(c1)OCO2", 0.0622],
  ["CC(C)=CCCC(C)=CC(O)C1C=CC2C(=O)N(c3ccccc3)C(=O)C2N1Nc1ccccc1 (stereo not drawn)", 0.253],
  ["CCOC(=O)C[C@H]1[C@H](OC(=O)Cc2ccc3c(c2)OCO3)[C@@H](NC(=O)C2CCCCC2)c2cc(OCCCO)ccc2N1C(=O)Cc1ccc(OC)cc1", 0.511],
  ["O=c1cccc(CCc2ccccc2)o1", -0.15],
  ["COC(=O)C[C@@H]1C[C@H](C)[C@]2(O1)C(=O)N(Cc1ccccc1)c1ccc(NC(C)=O)cc12", 0.362],
  ["CC(=O)C1=CCC(c2ccccc2)N(S(=O)(=O)c2ccc(C)cc2)C1 (stereo not drawn)", 1.55],
  ["CC(C)(C)OC(=O)CC[C@@]1(C(=O)NCCN2CCOCC2)N=C(c2ccc(OCCCO)cc2)O[C@@H]1c1ccccc1", -0.522],
  ["CC(C)C[C@@H]1NC(=O)[C@H]2C[C@@H](C(=O)NCCCCCNC(=O)CS)[C@@H](c3cccc(OCCO)c3)N2C1=O", 0.867],
  ["COc1ccc(NN2C(C(O)c3ccc(OC)c(OCc4ccccc4)c3)C=CC3C(=O)N(C4CCCCC4)C(=O)C32)cc1 (stereo not drawn)", 0.185],
  ["CCOC(=O)C1=C[C@@H](CC)N(S(=O)(=O)c2ccc(C)cc2)[C@H]1c1ccccc1", 0.637],
  ["Cc1ccc(S[C@]2(C(=O)NC3CC3)CC(=O)N(Cc3ccccc3)[C@@H]2c2ccc(CO)cc2)cc1", -0.906],
  ["CC(C)(C)OC(=O)CC[C@@]1(C(=O)O)N=C(c2ccc(OCCCO)cc2)O[C@@H]1c1ccccc1N=[N+]=[N-]", 1.22],
  ["CCOC(=O)C1=C[C@@H](C(C)C)N(S(=O)(=O)c2ccc(C)cc2)[C@H]1c1ccc(C(C)C)cc1", 0.644],
  ["O=C1c2ccccc2[C@@]2(Cc3ccccc3N(Cc3ccccc3)C2=O)[C@H](c2ccc(CO)cc2)N1C1CCCCC1", -0.269],
  ["COc1ccc(CCNC(=O)[C@@H]2c3ccccc3C(=O)N(Cc3ccc(OC(F)(F)F)cc3)[C@H]2c2ccc(CO)cc2)cc1", 0.366]
]}

* * *

- protocol: E. coli acrAB mutant growth effects, primary screen, E. coli filamentation inducers, strain DRC39, OD650, 48 h (AID 1179);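 further: screen aims at cell division blockers that make cells filament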
- assay setup: E. coli DRC39 delta-acrAB growth, higher = more signal, called active from +8 up or from −8 down
Below is a list of entries, each paired with its recorded z-score value.

{"columns": ["molecule", "z-score"],
 "data": [
  ["C=CC[C@@]1(C(=O)O)N=C(c2ccc(OCCCO)cc2)O[C@@H]1c1ccccc1N=[N+]=[N-]", -0.154],
  ["CCOC(=O)C1=CCC(c2ccc([N+](=O)[O-])cc2)N(S(=O)(=O)c2ccc(C)cc2)C1 (stereo not drawn)", -0.418],
  ["C=CCNC(=O)[C@@H]1[C@H]2C(=O)O[C@H](c3ccccc3)[C@H](c3ccccc3)N2[C@H](c2ccc(OCCO)cc2)[C@@]12C(=O)Nc1ccccc12", 0.548],
  ["C=CCOC(=O)[C@@H]1[C@H]2C(=O)O[C@H](c3ccccc3)[C@H](c3ccccc3)N2[C@H](c2ccc(OCCOC(=O)[C@@H]3C[C@@H]4C(=O)NCC(=O)N4[C@@H]3c3cccc(OCCO)c3)cc2)[C@@]12C(=O)Nc1ccc(I)cc12", 0.17],
  ["COC(=O)[C@@]1(Cc2ccc(OC)cc2)[C@H]2c3cc(C(=O)N4CCCC4)n(Cc4cc(F)cc5c4OCOC5)c3C[C@H]2CN1C(=O)c1ccccc1", -1.24],
  ["C=CCOC(=O)[C@H]1[C@@H]2C(=O)O[C@@H](c3ccccc3)[C@@H](c3ccccc3)N2[C@@H](c2ccc(OCCOC(=O)[C@@H]3C[C@@H]4C(=O)NCC(=O)N4[C@@H]3c3ccc(O)cc3)cc2)[C@]12C(=O)Nc1ccccc12", 1.61],
  ["O=C(CCN1CCOCC1)c1cccc(O)c1", 0.737],
  ["O=C1C2C=CC(C(O)c3ccc(B(O)O)cc3)N(Nc3ccccc3)C2C(=O)N1c1ccccc1 (stereo not drawn)", -0.346],
  ["C#CCN(C(/C=C/c1ccccc1)CO)C(C(=O)O)c1ccccc1 (stereo not drawn)", -0.198],
  ["O=c1cccc(C=Cc2ccccc2)o1", 0.761],
  ["COC(=O)[C@@]1(Cc2ccc(OC)cc2)[C@H]2c3cc(C(=O)N4CCCC4)n(CCc4c[nH]c5cc(F)ccc45)c3C[C@H]2CN1C(=O)c1ccccc1", -0.141],
  ["COc1ccc(C(O)C2C=CC3C(=O)N(C)C(=O)C3N2Nc2ccccc2)cc1OCc1ccccc1 (stereo not drawn)", -1.05],
  ["COCCOC(=O)N1C(=O)[C@@]2(c3cc(C#Cc4ccc(OC)cc4)ccc31)[C@H](C(=O)N1CCN(c3ncccn3)CC1)[C@H]1C(=O)O[C@H](c3ccccc3)[C@H](c3ccccc3)N1[C@@H]2c1ccc(O)cc1", 1.09],
  ["COC(=O)c1ccc(C23CC2(C(NP(=O)(c2ccccc2)c2ccccc2)c2ccccc2)C3)cc1 (stereo not drawn)", -0.16],
  ["COc1ccccc1CN1C(=O)c2ccccc2[C@@H](C(=O)NCCN2CCOCC2)[C@@H]1c1ccc(CO)cc1", -0.0251],
  ["N#Cc1ccc(NN2C(C(O)C3CCCCC3)C=CC3C(=O)N(c4ccccc4)C(=O)C32)cc1 (stereo not drawn)", -0.673],
  ["CC1CC/C=C\\[C@H]2OC34C=CCN(Cc5ccccc5)C(=O)[C@H]3N(CCCCCO)C(=O)[C@@H]4C2C(=O)O1 (stereo partly drawn)", 0.667],
  ["COCCOC(=O)N1C(=O)[C@@]2(c3cc(C#CCC(C(=O)OC)C(=O)OC)ccc31)[C@H](c1ccccc1OCCO)N1[C@H](c3ccccc3)[C@H](c3ccccc3)OC(=O)[C@H]1[C@@H]2C(=O)N1CCc2cc(OC)c(OC)cc2C1", -0.441],
  ["COCCOC(=O)N1C(=O)[C@@]2(c3cc(C#CCCO)ccc31)[C@H](c1ccc(O)cc1)N1[C@H](c3ccccc3)[C@H](c3ccccc3)OC(=O)[C@H]1[C@@H]2C(N)=O", 0.138],
  ["O=c1oc(-c2ccccc2)nc2cc(Br)ccc12", -0.39],
  ["COC(=O)[C@@]1(Cc2ccc(F)cc2)[C@H]2c3cc(C(=O)N(C)C)n(CCc4ccccn4)c3C[C@H]2CN1C(=O)c1ccccc1", -1.02],
  ["O=C/C=C/c1ccc2c(c1)OCO2", 0.594],
  ["CCCCC(O)C1C=CC2C(=O)N(C3CCCCC3)C(=O)C2N1Nc1ccc(OC)cc1 (stereo not drawn)", -0.584],
  ["CC1=C2[C@@H](CCc3ccccc3)OB(O)C[C@@H]2n2c(=O)n(-c3ccccc3)c(=O)n2C1", -0.63],
  ["CN1C(=O)C2C(C1=O)C1C=C(CCCO)C2C(c2cccs2)N1C (stereo not drawn)", 0.742],
  ["COCCOC(=O)N1C(=O)[C@@]2(c3cc(C#CCC(C(=O)OC)C(=O)OC)ccc31)[C@H](C(=O)N1CCN(c3ncccn3)CC1)[C@H]1C(=O)O[C@H](c3ccccc3)[C@H](c3ccccc3)N1[C@@H]2c1ccc(OCCO)cc1", 0.106],
  ["COCCOC(=O)N1C(=O)[C@@]2(c3cc(C#CCNC(N)=O)ccc31)[C@H](c1ccc(OCCO)cc1)N1[C@H](c3ccccc3)[C@H](c3ccccc3)OC(=O)[C@H]1[C@@H]2C(=O)N1CCc2cc(OC)c(OC)cc2C1", 0.582],
  ["CCOC(=O)C[C@H]1[C@H](OC(=O)c2ccc(-c3ccccc3)cc2)[C@@H](NC(=O)Cc2ccc(OC)cc2)c2cc(OCCCO)ccc2N1C(=O)c1ccc2ccccc2n1", -0.485]
]}

* * *

Below is a list of entries, each paired with its recorded composite z-score value.
- measured on: Calmodulin-1 (Homo sapiens) (UniProt P0DP23)
- protocol: calcium-bound CALM1 binders on microarrays, profiling panel, artefact control for SMM control-protein annotation, biochemical, small-molecule microarray, Cy5-labelled CALM1, plus calcium (AID 1112);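 further: score merges spot fluorescence with signal to noise from triplicate slides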
- assay setup: Cy5-CALM1 binding fluorescence, higher = more signal

{"columns": ["molecule", "composite z-score"],
 "data": [
  ["COCCCNC(=O)[C@@]1(C)c2ccccc2C(=O)N(Cc2cc(C(F)(F)F)cc(C(F)(F)F)c2)[C@H]1c1ccc(CO)cc1", 0.378],
  ["COc1cc2c(cc1O)C(C)N(Cc1cccc(OC(F)(F)F)c1)CC2 (centres undefined)", 0.938],
  ["CCOc1cc(C(O)C2C=CC3C(=O)N(c4ccccc4)C(=O)C3N2Nc2ccc([N+](=O)[O-])cc2)ccc1O (centres undefined)", -0.255],
  ["NC(=O)NCC#Cc1ccc2c(c1)[C@]1(C(=O)N2)[C@H](C(=O)NC[C@H](O)c2ccccc2)[C@H]2C(=O)O[C@H](c3ccccc3)[C@H](c3ccccc3)N2[C@@H]1c1ccc(O)cc1", 0.916]
]}
